src = paper PMC5479831

- Substrate: CCOC(=O)C(=O)CCc1ccccc1
- Measurement Description: purified protein
- Format: biochemical, Thermotoga maritima
- Condition Notes: apparent, 0.25 mM NADPH, 50 mM potassium phosphate pH 6.5, 35 °C, 30 mM DMSO

[
  {
    "Protein": "Tm1743 (Thermotoga maritima MSB8; W21S/W86N) (protein) MLYKELGRTGEEIPALGLGTSGIGGFETPDYSRDEEMVELLKTAIKMGYTHIDTAEYYGGGHTEELIGKAIKDFRREDLFIVSKVNPTHLRRDDLLRSLENTLKRLDTDYVDLYLIHWPNPEIPLEETLSAMAEGVRQGLIRYIGVSNFDRRLLEEAISKSQEPIVCDQVKYNIEDRDPERDGLLEFCQKNGVTLVAYSPLRRTLLSEKTKRTLEEIAKNHGATIYQIMLAWLLAKPNVVAIPKAGRVEHLRENLKATEIKLSEEEMKLLDSLG",
    "kcat/Km [M⁻¹ s⁻¹]": 510
  }
]
